Test: in vitro
Settings: human, hela cells, % viability
Reported Endpoint: viability at 28.5 h, 10 µM (%)
Reply numerically in %, unit not repeated.

Look over these answered cases.
>>> print(df.to_string())
                                   compound           reported_endpoint  units_text  reported_result
0  Cc1cc(C[C@@H]2CCC[C@H]2NCc2cc(Cl)ccc2O)on1  viability at 28.5 h, 10 µM           %              103
1  Cc1ccc(S(N)(=O)=O)cc1C(=O)NC(C)CCc1ccccc1 (stereo not shown)  viability at 28.5 h, 10 µM           %             87.2
2                 NNC(=O)/C(=C\c1ccccc1)CCO  viability at 28.5 h, 10 µM           %              117

For this compound ( Cc1nc2ccc(C(=O)N3CCN(c4ccccc4)CC3)cn2c1N(C)C(=O)c1cccs1 ), measured viability at 28.5 h, 10 µM is 99

Origin of values: paper PMC12040169
